Assay: Compound cytotoxicity measured by an ATP content assay as a counter-screen for lead compounds in human iPSC derived neural progenitor cells (hNPCs)
Settings: human iPSC-derived NPC viability, ATP luminescence; series mostly up to 46.1 µM
Records with an inconclusive call do not appear. Calls of active or inactive are those of the source. Calls come from the whole dose curve; as a rule, active = well fitted cell-killing curve with a large enough effect; inconclusive = small, poorly fitted or top-dose-only effect; inactive = flat fitted curve, though single readings scatter.
Hi! Could you answer with just one of these? active, inactive

Challenge: Could you check what this test reported for `O=C(/C=C/c1ccccc1)NCCO` ?
Response given: inactive

Challenge: Try this compound too: `CC(=O)Oc1cccc2c1C(=O)c1c(OC(C)=O)cc(C(=O)O)cc1C2=O`
Response given: inactive

Challenge: Try this compound too: `O=c1cc(-c2ccccc2)oc2cc(O)cc(O)c12`
Response given: inactive

Challenge: Try this compound too: `CN(C)c1ccc(/C=C2\C(=O)Nc3ccccc32)cc1`
Response given: active

Challenge: Try this compound too: `O=C(O)c1cc([N+](=O)[O-])ccc1NCCCc1ccccc1`
Response given: inactive

Challenge: Try this compound too: `CCOCCOC(=O)/C=C/c1ccc(OC)cc1`
Response given: inactive

Challenge: Try this compound too: `CCCCCCOc1ccccc1C(N)=O`
Response given: inactive

* * *

Experiment: Compound cytotoxicity measured by an ATP content assay as a counter-screen for lead compounds in human iPSC derived neural progenitor cells (hNPCs)
Conditions: human iPSC-derived NPC viability, ATP luminescence; series mostly up to 46.1 µM
Inconclusive results are not listed. The source made the active and inactive calls. The call rests on the fitted dose curve; in most records, active means well fitted cell-killing curve with a large enough effect; inconclusive means small, poorly fitted or top-dose-only effect; inactive means flat fitted curve, though single readings scatter.
Hi! Could you answer with just one of these? t = active, f = inactive

Challenge: Could you check what this test reported for `N#C/C(=C\c1ccc(O)c(O)c1)C(=O)Nc1ccccc1` ?
Response given: f

Challenge: Try this molecule too: `CC1(C)OC2=C(C(=O)c3ccccc3C2=O)[C@H](NCc2ccccc2)[C@H]1O`
Response given: t

Challenge: Try this molecule too: `O=C1c2ccccc2C(=O)c2c1ccc(O)c2O`
Response given: f

Challenge: Try this molecule too: `O=C(O)c1cccc(-c2noc(-c3ccccc3F)n2)c1`
Response given: t

Challenge: Try this molecule too: `O=C(Oc1ccccc1)c1cccc(C(=O)Oc2ccccc2)c1`
Response given: f

Challenge: Try this molecule too: `CN1CCN(c2cc3c(nn2)Oc2ccccc2N3C)CC1`
Response given: f

* * *

Assay: Compound cytotoxicity measured by an ATP content assay as a counter-screen for lead compounds in human iPSC derived neural progenitor cells (hNPCs)
Conditions: human iPSC-derived NPC viability, ATP luminescence; series mostly up to 46.1 µM
Inconclusive results are not listed. Active and inactive are the calls of the source. The call rests on the fitted dose curve; in most records, active means well fitted cell-killing curve with a large enough effect; inconclusive means small, poorly fitted or top-dose-only effect; inactive means flat fitted curve, though single readings scatter.
Hi! Could you answer with just one of these? active, inactive

Challenge: Could you check what this test reported for COc1ccc(CC2=NN3C([C@@H](CCc4ccccc4)[C@@H](C)O)=NC(C)C3C(=O)N2)cc1OC (some centres not stated) ?
Response given: inactive

Challenge: Try this molecule too: `C[C@H](NC(=O)C(=O)Nc1ccccc1C(C)(C)C)C(=O)N[C@@H](CC(=O)O)C(=O)COc1c(F)c(F)cc(F)c1F`
Response given: inactive

Challenge: Try this molecule too: `COc1ccc2nc(NC(=O)Nc3ccccc3)sc2c1`
Response given: active

Challenge: Try this molecule too: `O=S(=O)(O)c1ccc2nc(-c3ccccc3)[nH]c2c1`
Response given: inactive

Challenge: Try this molecule too: `C[C@@H]1CCN(C(=O)CC#N)C[C@H]1N(C)c1ncnc2[nH]ccc12`
Response given: inactive

Challenge: Try this molecule too: `CN(C)CCCSc1ccccc1NC(=O)/C=C/c1ccccc1`
Response given: inactive

Challenge: Try this molecule too: `O=C(OCc1ccccc1)c1ccc(O)cc1`
Response given: inactive

* * *

Test: Compound cytotoxicity measured by an ATP content assay as a counter-screen for lead compounds in human iPSC derived neural progenitor cells (hNPCs)
Settings: human iPSC-derived NPC viability, ATP luminescence; series mostly up to 46.1 µM
Protocol: National Center for Advancing Translational Sciences [NCATS] Johns Hopkins University School of Medicine Florida State University Assay Overview: Many compounds can cause cytotoxicity at high compound concentrations. […] Thus, the compound cytotoxicity needs to be measured in each cell type and each compound incubation time - same as these in the compound screening assay. The compound cytotoxicity can be measured by cell viability assays such as the ATP content assay. […]
Results filed as inconclusive are left out. Calls of active or inactive are those of the source. Calls follow the shape of the dose curve; as a rule, active = well fitted cell-killing curve with a large enough effect; inconclusive = small, poorly fitted or top-dose-only effect; inactive = flat fitted curve, though single readings scatter.
recordedMetric: Potency

Please review the following examples before continuing.
Cc1c(C(=O)O)c(O)cc2c1C(=O)c1c(O)c([C@@H]3O[C@H](CO)[C@@H](O)[C@H](O)[C@H]3O)c(O)c(O)c1C2=O
inactive
O=C(Nc1ccc([N+](=O)[O-])cc1Cl)c1cc(Cl)ccc1O
8.69 µM (active)
COc1ccc(-c2cc(=O)c3c(O)cc(O)cc3o2)cc1O
inactive
O=C1C[C@@H](c2ccc(O)cc2)Oc2cc(O)cc(O)c21
inactive
CC(=O)Nc1ccc([C@H](C)C(=O)Nc2ncc(C(C)C)s2)cc1
inactive
O=C(O)[C@@H](c1ccc(OCc2ccc3ccccc3n2)cc1)C1CCCC1
inactive
CC(C(=O)O)c1ccc(-c2ccccc2)c(F)c1 (centres undefined)
inactive
O=C1C(Cl)=C(NCCN2CCOCC2)C(=O)c2ncccc21
1.73 µM (active)

Challenge: # Potency lookup, item `Cc1[nH]c(C=C2C(=O)Nc3ccccc32)c(C)c1CCC(=O)O`
Response given: inactive

Challenge: Try this compound too: `N#CC1(c2ccc(NC(=O)c3cccnc3NCc3ccncc3)cc2)CCCC1`
Response given: inactive

Challenge: Try this compound too: `Cc1ccc(C(=O)c2ccc(CC(=O)O)n2C)cc1`
Response given: inactive

Challenge: Try this compound too: `CC=CC[C@@H](C)C(=O)[C@H]1C(=O)N[C@@H](C(C)C)C(=O)N(C)CC(=O)N(C)[C@@H](CC(C)C)C(=O)N[C@@H](C(C)C)C(=O)N(C)[C@@H](CC(C)C)C(=O)N[C@@H](C)C(=O)N[C@H](C)C(=O)N(C)[C@@H](CC(C)C)C(=O)N(C)[C@@H](CC(C)C)C(=O)N(C)[C@@H](C(C)C)C(=O)N1C`
Response given: inactive

Challenge: Try this compound too: CCCCCNC(=O)N1CCC(CN(Cc2ccc(Cl)cc2)Cc2ccc([N+](=O)[O-])s2)C1 (centres undefined)
Response given: inactive

Challenge: Try this compound too: `CC1(C)Cc2c(sc(NC(=S)NC(=O)c3ccccc3)c2C(=O)O)CO1`
Response given: inactive

Challenge: Try this compound too: `Cc1cc(O)c2ccccc2c1O`
Response given: 4.89 µM (active)

Challenge: Try this compound too: `CC(C)(C)COc1ccc(-n2cc(C(=O)O)cn2)cc1C#N`
Response given: inactive

Challenge: Try this compound too: `CCCCCCCCCCCC(=O)[O][Sn]([CH2]CCC)([CH2]CCC)[O]C(=O)CCCCCCCCCCC`
Response given: inactive

Challenge: Try this compound too: `CN(C)c1ccc2cc(C(=O)N[C@@H](CCCN=C(N)CCl)C(=O)NCc3ccccc3)ccc2c1`
Response given: inactive

Challenge: Try this compound too: `O=C(/C=C/c1ccc(O)cc1)c1ccc(O)cc1O`
Response given: inactive

* * *

Experiment: Compound cytotoxicity measured by an ATP content assay as a counter-screen for lead compounds in human iPSC derived neural progenitor cells (hNPCs)
Details: human iPSC-derived NPC viability, ATP luminescence; series mostly up to 46.1 µM
Method: National Center for Advancing Translational Sciences [NCATS] Johns Hopkins University School of Medicine Florida State University Assay Overview: Many compounds can cause cytotoxicity at high compound concentrations. […] Thus, the compound cytotoxicity needs to be measured in each cell type and each compound incubation time - same as these in the compound screening assay. The compound cytotoxicity can be measured by cell viability assays such as the ATP content assay. […]
Inconclusive results are not listed. Activity calls are given as the source filed them. Calls come from the whole dose curve; as a rule, active = well fitted cell-killing curve with a large enough effect; inconclusive = small, poorly fitted or top-dose-only effect; inactive = flat fitted curve, though single readings scatter.
recordedMetric: outcome

CO[C@H]1C(=O)[C@]2(C)[C@@H](OC)C[C@H]3OC[C@@]3(OC(C)=O)[C@H]2[C@H](OC(=O)c2ccccc2)[C@]2(O)C[C@H](OC(=O)[C@H](O)[C@@H](NC(=O)OC(C)(C)C)c3ccccc3)C(C)=C1C2(C)C
inactive
CN(C)c1cc(NC(=O)CNC(C)(C)C)c(O)c2c1C[C@@H]1C[C@H]3[C@H](N(C)C)C(=O)C(C(N)=O)=C(O)[C@@]3(O)C(=O)C1=C2O
inactive
O=C(c1ccccc1)c1ccc2n1CCC2C(=O)O (stereo not drawn)
inactive

* * *

Assay: Compound cytotoxicity measured by an ATP content assay as a counter-screen for lead compounds in human iPSC derived neural progenitor cells (hNPCs)
Settings: human iPSC-derived NPC viability, ATP luminescence; series mostly up to 46.1 µM
Records with an inconclusive call do not appear. Activity calls are given as the source filed them. Calls come from the whole dose curve; as a rule, active = well fitted cell-killing curve with a large enough effect; inconclusive = small, poorly fitted or top-dose-only effect; inactive = flat fitted curve, though single readings scatter.
Hi! Could you answer with just one of these? class 1 = active, class 0 = inactive

Challenge: Could you check what this test reported for CCC(C(=O)O)c1ccc(N2Cc3ccccc3C2=O)cc1 (stereo unspecified) ?
Response given: class 0

Challenge: Try this compound too: `CC(=C(CCOC(=O)C(C)C)SSC(CCOC(=O)C(C)C)=C(C)N(C=O)Cc1cnc(C)nc1N)N(C=O)Cc1cnc(C)nc1N`
Response given: class 0

Challenge: Try this compound too: COc1cc2nc(N3CCN(C(=O)C4CCCO4)CC3)nc(N)c2cc1OC (stereo unspecified)
Response given: class 0

Challenge: Try this compound too: CN1CC(=O)N2C(Cc3c([nH]c4ccccc34)[C@H]2c2ccc3c(c2)OCO3)C1=O (stereo partly specified)
Response given: class 0

Challenge: Try this compound too: `Nc1ccc(O)c(C(=O)O)c1`
Response given: class 0

Challenge: Try this compound too: COc1ccnc2c1CCCCC2S(=O)c1nc2ccccc2[nH]1 (stereo unspecified)
Response given: class 0

Challenge: Try this compound too: `O=C(O)[C@H](CC(=O)N1C[C@@H]2CCCC[C@H]2C1)Cc1ccccc1`
Response given: class 0

Challenge: Try this compound too: `CC(=Cc1ccccc1)C=C1SC(=S)N(CC(=O)O)C1=O`
Response given: class 0

Challenge: Try this compound too: `[O-][n+]1ccccc1SSc1cccc[n+]1[O-]`
Response given: class 1

Challenge: Try this compound too: `Nc1ccc2c(c1)CN1C(=O)c3ccccc3C1=N2`
Response given: class 1

Challenge: Try this compound too: `Nc1nc2ccc([N+](=O)[O-])cc2s1`
Response given: class 0
